- experimentalSystem: OXA-10 (Pseudomonas aeruginosa, UniProt P14489)
- Sequence (P14489 20-266): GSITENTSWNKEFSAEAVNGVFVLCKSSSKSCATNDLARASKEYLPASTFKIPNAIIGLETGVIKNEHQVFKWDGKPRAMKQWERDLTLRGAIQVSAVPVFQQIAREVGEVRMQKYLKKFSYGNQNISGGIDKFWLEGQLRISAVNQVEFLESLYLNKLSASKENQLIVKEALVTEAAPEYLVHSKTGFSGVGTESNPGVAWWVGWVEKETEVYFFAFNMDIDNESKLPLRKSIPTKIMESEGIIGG
- method: β-Lactamase inhibitory activity test, nitrocefin substrate
- Method: The IC50 of β-lactamase inhibitors against β-lactamases was tested using nitrocefin as the substrate. The enzyme and serially diluted β-lactamase inhibitor were incubated in 50 mM phosphate buffer (containing 0.1 mg/mL bovine serum albumin) at 37°C for 10 minutes. […] The absorbance at 490 nm was recorded every minute for a total of 1 hour. The initial reaction rate was calculated, and the IC50 was calculated using GraphPad Prism software. […]
Reported IC50 by item:

- molecule: "CS(=O)(=O)n1ccc2c1CN1CC2N(OS(=O)(=O)O)C1=O (stereo not drawn)"
  IC50: "< 1 µM"
- molecule: "O=C1N2Cc3c(ccn3S(=O)(=O)c3ccccc3)C(C2)N1OS(=O)(=O)O (stereo not drawn)"
  IC50: "< 1 µM"

Then this molecule:
Measured IC50 of CS(=O)(=O)n1ccc2c1CN1C[C@@H]2N(OS(=O)(=O)O)C1=O : < 1 µM

Origin of measurements: patent EP4759816A1
